Cited source: patent US6329342A

Provide the recorded pEC50 for the entries that follow.
Test system: Pituitary cells
Experiment: Pituitary Cell Culture Assay for Growth Hormone Secretion
Assay type: cell-based, rat (male Sprague-Dawley)
Settings: 0.25 h, read-out: GH secretion EC50; heading: GH secretion EC50; rat anterior pituitary cells, 15 min at 37° C.; Examples Part 1
Please treat pEC50 as minus the base-10 logarithm of the molar concentration.

May I ask what pEC50 has been recorded for COC(=O)[C@@H]1CCCN1C(=O)C(c1ccccc1)n1cnc(NC(=O)[C@@H](COCc2ccccc2)NC(=O)C(C)(C)N)c1 (some centres unmarked) ? 5.26

May I ask what pEC50 has been recorded for COC(=O)[C@@H]1CCCN1C(=O)C(c1ccccc1)n1cnc(NC(=O)[C@H](COCc2ccccc2)NC(=O)C(C)(C)N)c1 (some centres unmarked) ? 5.62
